Data credit: paper PMC6792352

Test: in vitro
Details: rat, gh3-tre-luc cells, AC50 (uM) modified / 1000, Tox21_110001=Tox21_110815; viability, 1 nM T3 present, 24 h

- COMPOUND: "COc1ccc2c(c1OC)C(=O)O[C@H]2[C@@H]1c2cc3c(cc2CCN1C)OCO3 [(1S,9R)-beta-Hydrastine]"
  CC50 at 24 h: "> 50 µM"

====

Some compounds, each annotated with its measured CC50 at 24 h.
Experiment: in vitro
Settings: rat, gh3-tre-luc cells, AC50 (uM) modified / 1000

- COMPOUND: "O=C(O)CCCCC1CCSS1 (stereo not drawn)"
  CC50 at 24 h: "> 90 µM"
- COMPOUND: "O=C(N[C@H]1N=C(c2ccccc2F)c2cccc3c2N(CC3)C1=O)c1cc2ccccc2[nH]1 [Pranazepide]"
  CC50 at 24 h: "> 50 µM"
- COMPOUND: "CCOC(=O)c1cc(-c2ccccc2)nc2ccc(C)cc12"
  CC50 at 24 h: "44.6 µM"
- COMPOUND: "CCCc1nc2c(C)cc(-c3nc4ccccc4n3C)cc2n1Cc1ccc(-c2ccccc2C(=O)O)cc1"
  CC50 at 24 h: "> 50 µM"
- COMPOUND: "O=C[C@H](O)[C@@H](O)[C@H](O)[C@H](O)CO (racemic)"
  CC50 at 24 h: "> 50 µM"
- COMPOUND: "CN[C@@H]1[C@@H](O)[C@@H](O[C@@H]2[C@H](O)[C@H](O[C@H]3OC(CN)=CC[C@H]3N)[C@@H](N)C[C@H]2N)OC[C@]1(C)O"
  CC50 at 24 h: "> 50 µM"
- COMPOUND: "N#CC1(N)CCCCC1"
  CC50 at 24 h: "> 90 µM"
- COMPOUND: "C[Si]1(C)O[Si](C)(C)O[Si](C)(C)O1"
  CC50 at 24 h: "> 90 µM"
- COMPOUND: "CC(C)(Cl)Cl"
  CC50 at 24 h: "> 90 µM"

====

Test: in vitro
Conditions: rat, gh3-tre-luc cells, AC50 (uM) modified / 1000
Counter-ions that a name gives are not always drawn.

- COMPOUND: "CC(CCc1ccc2c(c1)OCO2)NN (stereo not drawn) [Safrazine hydrochloride]"
  CC50 at 24 h: "> 50 µM"
- COMPOUND: "CCC(=O)OCC(=O)[C@@]1(OC(=O)CC)[C@H](C)C[C@H]2[C@@H]3CCC4=CC(=O)C=C[C@]4(C)[C@@]3(F)[C@@H](O)C[C@@]21C [Dexamethasone dipropionate]"
  CC50 at 24 h: "> 50 µM"
- COMPOUND: "COc1cc2c3cc1Oc1cc(ccc1O)C[C@@H]1c4c(cc(OC)c(O)c4Oc4ccc(cc4)C[C@@H]3N(C)CC2)CC[N+]1(C)C [(+)-Tubocurarine chloride hydrochloride]"
  CC50 at 24 h: "> 50 µM"
- COMPOUND: "CC(=O)CCc1ccccc1"
  CC50 at 24 h: "> 90 µM"
- COMPOUND: "C=C(C)[C@@H]1CC=C(C=O)CC1"
  CC50 at 24 h: "> 90 µM"
- COMPOUND: "CN1CC(=O)N2[C@H](c3ccc4c(c3)OCO4)c3[nH]c4ccccc4c3C[C@@H]2C1=O"
  CC50 at 24 h: "> 50 µM"
- COMPOUND: "CCCCCCCCCOS(=O)(=O)O"
  CC50 at 24 h: "> 90 µM"
- COMPOUND: "CCCCCCCCCCCCOS(=O)(=O)O [Sodium dodecyl sulfate]"
  CC50 at 24 h: "> 90 µM"
- COMPOUND: "CCOC(=O)[C@H](CCc1ccccc1)N[C@H]1CS[C@H](c2cccs2)CN(CC(=O)O)C1=O [Temocapril hydrochloride]"
  CC50 at 24 h: "> 50 µM"
- COMPOUND: "Clc1cc(Cl)nc(Cl)n1"
  CC50 at 24 h: "> 90 µM"
- COMPOUND: "CCCOCCC"
  CC50 at 24 h: "> 90 µM"
- COMPOUND: "Brc1ccccc1"
  CC50 at 24 h: "> 90 µM"
- COMPOUND: "NNC(=O)CCCCC(=O)NN [Hexanedihydrazide]"
  CC50 at 24 h: "> 90 µM"
- COMPOUND: "CCOCCC(=O)OCC [Ethyl 3-ethoxypropionate]"
  CC50 at 24 h: "> 100 µM"
- COMPOUND: "O=c1[nH]c(=O)c2[nH]c(=O)[nH]c2[nH]1 [Sodium urate]"
  CC50 at 24 h: "> 50 µM"
- COMPOUND: "CC[C@@]1(O)C(=O)OCc2c1cc1n(c2=O)Cc2cc3c(CN(C)C)c(O)ccc3nc2-1 [Topotecan hydrochloride]"
  CC50 at 24 h: "> 50 µM"
- COMPOUND: "C[C@@H](NCCc1ccc(O)cc1)[C@@H](O)c1ccc(O)cc1 (racemic) [Ritodrine hydrochloride]"
  CC50 at 24 h: "> 50 µM"
- COMPOUND: "CC(=O)CC(C)(C)C1CCCCC1"
  CC50 at 24 h: "> 90 µM"
